- assayed-system: T1, huNectin4-His (human, UniProt Q96NY8 32-349)
- T1 construct: Immobilized on the SPR chip; also called humanNectin4; human Nectin4; not shown: His tag
- T1 sequence (looked up): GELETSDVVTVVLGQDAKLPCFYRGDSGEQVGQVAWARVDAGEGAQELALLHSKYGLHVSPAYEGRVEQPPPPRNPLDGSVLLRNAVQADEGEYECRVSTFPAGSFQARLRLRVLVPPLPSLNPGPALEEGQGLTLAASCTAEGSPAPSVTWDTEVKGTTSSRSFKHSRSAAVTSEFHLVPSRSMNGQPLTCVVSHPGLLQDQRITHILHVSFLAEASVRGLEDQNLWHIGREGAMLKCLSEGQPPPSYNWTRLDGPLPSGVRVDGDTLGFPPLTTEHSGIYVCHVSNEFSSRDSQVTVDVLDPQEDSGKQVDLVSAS
- experimental-protocol: SPR, huNectin4-His immobilized, pH 6.5

{"binder": "BAP-143-06-24-16 (antibody, V domains shown, Used as a conjugate with a linker payload (CAB ADC)) VH: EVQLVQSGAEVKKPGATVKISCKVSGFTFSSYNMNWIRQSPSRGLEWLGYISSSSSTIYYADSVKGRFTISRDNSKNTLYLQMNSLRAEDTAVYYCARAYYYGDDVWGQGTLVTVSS VL: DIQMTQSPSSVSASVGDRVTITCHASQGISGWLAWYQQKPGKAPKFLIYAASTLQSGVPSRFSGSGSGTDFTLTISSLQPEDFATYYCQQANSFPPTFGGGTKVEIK", "units": "s⁻¹", "koff": "9.92e-06"}
